System: Wolbachia pipientis
Test: Anti-Wolbachia Cell-Based Screen
Format: functional
Parameters: scale not given: in the data most compounds retested in dose-response had high values
Conditions: 5 µM
Among all 48,000 compounds or so, about 13,000 (27%) showed an effect of 50% or more. The list shows a part of the results.
Listed below: Percent Effect values for each entry.
Measured parameter: Percent Effect (%)

>  <Compound>
Cc1noc(C2(C)CCCN(C(=O)C(C)C)C2)n1 (configuration not stated)

>  <Measured parameter>
Percent Effect

>  <Unit tag>
%

>  <Number>
123

$$$$
>  <Compound>
CNS(=O)(=O)c1cccc(C(C)NCc2cccc(O)c2)c1 (configuration not stated)

>  <Measured parameter>
Percent Effect

>  <Unit tag>
%

>  <Number>
-12.85

$$$$
>  <Compound>
Cc1noc([C@@]23CCO[C@@H]2CCN(C(=O)CCC(C)C)C3)n1

>  <Measured parameter>
Percent Effect

>  <Unit tag>
%

>  <Number>
4.63

$$$$
>  <Compound>
COc1ccccc1-c1cc(NC(=O)CCC2CCCO2)[nH]n1 (configuration not stated)

>  <Measured parameter>
Percent Effect

>  <Unit tag>
%

>  <Number>
4.714

$$$$
>  <Compound>
Fc1ccccc1Cc1noc(CN2CCCC(CN3CCCC3)C2)n1 (configuration not stated)

>  <Measured parameter>
Percent Effect

>  <Unit tag>
%

>  <Number>
-1.357

$$$$
>  <Compound>
Cc1ccc(CN(C)C(=O)NCC(=O)NC(C)(C)C)s1

>  <Measured parameter>
Percent Effect

>  <Unit tag>
%

>  <Number>
-5.904

$$$$
>  <Compound>
Cn1ccnc1-c1noc(NCc2ccc(Br)cc2)n1

>  <Measured parameter>
Percent Effect

>  <Unit tag>
%

>  <Number>
0.2508

$$$$
>  <Compound>
O=C(c1ccc(S(=O)(=O)NCC(F)F)cc1)N1C[C@H]2CNC[C@H]2C1

>  <Measured parameter>
Percent Effect

>  <Unit tag>
%

>  <Number>
19.64

$$$$
>  <Compound>
Cc1noc(C2(C)CCN(C(=O)C(C)C)CC2)n1

>  <Measured parameter>
Percent Effect

>  <Unit tag>
%

>  <Number>
126.4

$$$$
>  <Compound>
Cc1ccc(CN2C[C@H](C(=O)N3CCCCO3)[C@@H]3CCO[C@@H]3C2)o1.O=C(O)C(F)(F)F

>  <Measured parameter>
Percent Effect

>  <Unit tag>
%

>  <Number>
-4.524

$$$$
>  <Compound>
O=C(NCC1CCOC1)c1cc(-c2ccc(Cl)cc2)n[nH]1 (configuration not stated)

>  <Measured parameter>
Percent Effect

>  <Unit tag>
%

>  <Number>
-17.32

$$$$
>  <Compound>
COCCc1noc(CN2CCCC(Cn3cncn3)C2)n1 (configuration not stated)

>  <Measured parameter>
Percent Effect

>  <Unit tag>
%

>  <Number>
89.51

$$$$
>  <Compound>
Cn1ncnc1NCc1ccc(Cl)cc1

>  <Measured parameter>
Percent Effect

>  <Unit tag>
%

>  <Number>
106

$$$$
>  <Compound>
Cc1ccc(CN2CC[C@H]3OCC[C@@]3(C(=O)N3CCCO3)C2)o1.O=C(O)C(F)(F)F

>  <Measured parameter>
Percent Effect

>  <Unit tag>
%

>  <Number>
102.1

$$$$
>  <Compound>
Clc1ccc(CNc2ccc(Cl)cn2)cc1

>  <Measured parameter>
Percent Effect

>  <Unit tag>
%

>  <Number>
-12.24

$$$$
>  <Compound>
c1cncc(CN(Cc2ccsc2)Cc2ccc(C3CCCCO3)o2)c1 (configuration not stated)

>  <Measured parameter>
Percent Effect

>  <Unit tag>
%

>  <Number>
-4.94

$$$$
>  <Compound>
COc1cccc(C(=O)Nc2ccc(OCCC(N)=O)cc2)c1OC

>  <Measured parameter>
Percent Effect

>  <Unit tag>
%

>  <Number>
3.494

$$$$
>  <Compound>
Cc1ncc(-c2ccnc(N3CCCCC3)n2)c(=O)[nH]1

>  <Measured parameter>
Percent Effect

>  <Unit tag>
%

>  <Number>
2.763

$$$$
>  <Compound>
CN(C)c1ncccc1CNS(=O)(=O)c1c(F)cccc1F

>  <Measured parameter>
Percent Effect

>  <Unit tag>
%

>  <Number>
108

$$$$
>  <Compound>
COC(=O)c1cccc(C(=O)N(C)Cc2cccc(O)c2)c1

>  <Measured parameter>
Percent Effect

>  <Unit tag>
%

>  <Number>
112.7

$$$$
>  <Compound>
Cn1ncnc1NS(=O)(=O)c1ccccc1

>  <Measured parameter>
Percent Effect

>  <Unit tag>
%

>  <Number>
-4.376

$$$$
>  <Compound>
COc1ccccc1-c1cc(NC(=O)CC2CCS(=O)(=O)C2)[nH]n1 (configuration not stated)

>  <Measured parameter>
Percent Effect

>  <Unit tag>
%

>  <Number>
2.425

$$$$
>  <Compound>
Cn1ncnc1NCc1ccc(Br)cc1

>  <Measured parameter>
Percent Effect

>  <Unit tag>
%

>  <Number>
79.22

$$$$
>  <Compound>
COC(=O)C(C)(C)NC(=O)c1cc(COc2ccccc2OC)[nH]n1

>  <Measured parameter>
Percent Effect

>  <Unit tag>
%

>  <Number>
-6.385

$$$$
>  <Compound>
Cn1ccnc1-c1noc(NCc2ccc(Cl)cc2)n1

>  <Measured parameter>
Percent Effect

>  <Unit tag>
%

>  <Number>
9.491

$$$$
>  <Compound>
CNC(=O)C(C)(C)NC(=O)c1cc(COc2ccccc2OC)[nH]n1

>  <Measured parameter>
Percent Effect

>  <Unit tag>
%

>  <Number>
6.418

$$$$
>  <Compound>
CO[C@@H]1CC[C@@H](NC(=O)c2ccc(OCCN3CCCC3)cc2)[C@H]1O

>  <Measured parameter>
Percent Effect

>  <Unit tag>
%

>  <Number>
109.4

$$$$
>  <Compound>
Cc1noc([C@@]23CCO[C@@H]2CCN(C(=O)CN(C)C)C3)n1

>  <Measured parameter>
Percent Effect

>  <Unit tag>
%

>  <Number>
5.284

$$$$
>  <Compound>
COCCCN1CCCC2(CCN(S(=O)(=O)c3cccnc3)C2)C1=O (configuration not stated)

>  <Measured parameter>
Percent Effect

>  <Unit tag>
%

>  <Number>
-3.769

$$$$
>  <Compound>
CN(C)c1ncccc1CNC(=O)N(Cc1ccccc1F)C1CC1

>  <Measured parameter>
Percent Effect

>  <Unit tag>
%

>  <Number>
8.051

$$$$
>  <Compound>
CC(C)=CCN1CCN(CCCc2ccccc2)[C@H]2CS(=O)(=O)C[C@H]21

>  <Measured parameter>
Percent Effect

>  <Unit tag>
%

>  <Number>
-6.821

$$$$
>  <Compound>
O=C(N[C@@H]1CNCCC[C@H]1O)c1ccc(OCCN2CCCC2)cc1

>  <Measured parameter>
Percent Effect

>  <Unit tag>
%

>  <Number>
0.07573

$$$$
>  <Compound>
CC(=O)Nc1nc(-c2ccc(F)cc2)c[nH]1

>  <Measured parameter>
Percent Effect

>  <Unit tag>
%

>  <Number>
8.711

$$$$
>  <Compound>
COc1ccc(-c2cc(C(=O)Nc3nc[nH]n3)[nH]n2)cc1

>  <Measured parameter>
Percent Effect

>  <Unit tag>
%

>  <Number>
117.7

$$$$
>  <Compound>
COc1ccc(NC(=O)NC(C)c2nc[nH]n2)cc1 (configuration not stated)

>  <Measured parameter>
Percent Effect

>  <Unit tag>
%

>  <Number>
-2.331

$$$$
>  <Compound>
Cn1ncnc1NCc1ccccc1Cl

>  <Measured parameter>
Percent Effect

>  <Unit tag>
%

>  <Number>
98

$$$$
>  <Compound>
Cn1ncnc1NS(=O)(=O)c1ccc(F)cc1

>  <Measured parameter>
Percent Effect

>  <Unit tag>
%

>  <Number>
-13.8

$$$$
>  <Compound>
CCCC(C)CS(=O)(=O)NCc1cccnc1N(C)C (configuration not stated)

>  <Measured parameter>
Percent Effect

>  <Unit tag>
%

>  <Number>
13.21

$$$$
>  <Compound>
O=C(N[C@@H]1CNCCC[C@H]1O)c1ccc(OCCN2CCOCC2)cc1

>  <Measured parameter>
Percent Effect

>  <Unit tag>
%

>  <Number>
0.8179

$$$$
>  <Compound>
COCC(=O)N1CC[C@H]2OCC[C@@]2(c2nc(C)no2)C1

>  <Measured parameter>
Percent Effect

>  <Unit tag>
%

>  <Number>
6.759

$$$$
>  <Compound>
CC(=O)N1CCC(C)(c2nc(C)no2)CC1

>  <Measured parameter>
Percent Effect

>  <Unit tag>
%

>  <Number>
134.3

$$$$
>  <Compound>
CCC(CC)c1cc(CNC(=O)N2CCOCC2CC)on1 (configuration not stated)

>  <Measured parameter>
Percent Effect

>  <Unit tag>
%

>  <Number>
8.113

$$$$
>  <Compound>
Cn1ncnc1NS(=O)(=O)c1ccc(F)cc1Cl

>  <Measured parameter>
Percent Effect

>  <Unit tag>
%

>  <Number>
-0.8831

$$$$
>  <Compound>
Cc1ccc(CN2CCOC3(CCCN(c4cccc(F)c4)C3)C2)o1.O=C(O)C(F)(F)F.O=C(O)C(F)(F)F (configuration not stated)

>  <Measured parameter>
Percent Effect

>  <Unit tag>
%

>  <Number>
-11.31

$$$$
>  <Compound>
Cn1ncnc1NCc1ccc(F)cc1

>  <Measured parameter>
Percent Effect

>  <Unit tag>
%

>  <Number>
113.5

$$$$
>  <Compound>
Cc1[nH]c(=O)sc1S(=O)(=O)N1CCCC1C(=O)NC1CC1 (configuration not stated)

>  <Measured parameter>
Percent Effect

>  <Unit tag>
%

>  <Number>
0.9374

$$$$
>  <Compound>
Cc1noc([C@@]23CCO[C@@H]2CCN(C(=O)c2cc(C)c(C)s2)C3)n1

>  <Measured parameter>
Percent Effect

>  <Unit tag>
%

>  <Number>
6.303

$$$$
